# ASSAY_TEXT: stability of crystal forms (XRPD, HPLC, color)
# Assay type: physicochemical
# ASSAY_SETUP: 60°C, closed, 1 week
Below: a set of entries, each annotated with reported Degradation (%).
Give a bare numeral; the unit % is implied.

Consider the worked cases shown below.
[[record]]
compound = "NC(=O)[C@H]1CCCc2c1[nH]c1ccc(Cl)cc21 [Crystal form C]"
metric = "Degradation (%)"
units = "%"
data_value = 0.1

[[record]]
compound = "NC(=O)[C@H]1CCCc2c1[nH]c1ccc(Cl)cc21 [Crystal form E]"
metric = "Degradation (%)"
units = "%"
data_value = 3.0


Request: Field request: Degradation (%) | item: NC(=O)[C@H]1CCCc2c1[nH]c1ccc(Cl)cc21 [Crystal form D]
Result: 1.1

====

# ASSAY_TEXT: stability of crystal forms (XRPD, HPLC, color)
# Assay type: physicochemical
# ASSAY_SETUP: Initial
Below: a set of entries, each annotated with reported Purity (%).
Give a bare numeral; the unit % is implied.

[[record]]
compound = "NC(=O)[C@H]1CCCc2c1[nH]c1ccc(Cl)cc21 [Crystal form E]"
units = "%"
data_value = 99.4

[[record]]
compound = "NC(=O)[C@H]1CCCc2c1[nH]c1ccc(Cl)cc21 [Crystal form D]"
units = "%"
data_value = 99.8

[[record]]
compound = "NC(=O)[C@H]1CCCc2c1[nH]c1ccc(Cl)cc21 [Crystal form C]"
units = "%"
data_value = 99.7


Request: Field request: Purity (%) | item: NC(=O)[C@H]1CCCc2c1[nH]c1ccc(Cl)cc21 [Crystal form F]
Result: 99.8

Request: Next up: NC(=O)[C@H]1CCCc2c1[nH]c1ccc(Cl)cc21 [Crystal form A]
Result: 99.8

====

# ASSAY_TEXT: stability of crystal forms (XRPD, HPLC, color)
# Assay type: physicochemical
# ASSAY_SETUP: 25°C/92.5%RH, open, 1 week
Below: a set of entries, each annotated with reported Purity (%).
Give a bare numeral; the unit % is implied.

Consider the worked cases shown below.
[[record]]
compound = "NC(=O)[C@H]1CCCc2c1[nH]c1ccc(Cl)cc21 [Crystal form A]"
units = "%"
data_value = 99.8

[[record]]
compound = "NC(=O)[C@H]1CCCc2c1[nH]c1ccc(Cl)cc21 [Crystal form D]"
units = "%"
data_value = 99.2

[[record]]
compound = "NC(=O)[C@H]1CCCc2c1[nH]c1ccc(Cl)cc21 [Crystal form E]"
units = "%"
data_value = 99.2


Request: Field request: Purity (%) | item: NC(=O)[C@H]1CCCc2c1[nH]c1ccc(Cl)cc21 [Crystal form C]
Result: 99.1

====

# ASSAY_TEXT: stability of crystal forms (XRPD, HPLC, color)
# Type: physicochemical
# ASSAY_SETUP: 60°C, closed, 1 week
METRIC: Color

[[record]]
compound = "NC(=O)[C@H]1CCCc2c1[nH]c1ccc(Cl)cc21 [Crystal form C]"
metric = "Color"
data_value = "Changed"

[[record]]
compound = "NC(=O)[C@H]1CCCc2c1[nH]c1ccc(Cl)cc21 [Crystal form A]"
metric = "Color"
data_value = "No change"

[[record]]
compound = "NC(=O)[C@H]1CCCc2c1[nH]c1ccc(Cl)cc21 [Crystal form F]"
metric = "Color"
data_value = "No change"

[[record]]
compound = "NC(=O)[C@H]1CCCc2c1[nH]c1ccc(Cl)cc21 [Crystal form E]"
metric = "Color"
data_value = "Changed"


Request: Field request: Color | item: NC(=O)[C@H]1CCCc2c1[nH]c1ccc(Cl)cc21 [Crystal form D]
Result: Changed
